Assay: Metabolic stability test: liver microsomal stability assay
Assay type: in vitro ADME, mouse
Details: mouse liver microsomes 0.5 mg protein/mL, compound 1 µM, absence of NADPH
Procedure: Under the presence and absence of NADPH, a microsome solution prepared to a concentration of 0.5 mg protein/mL using 100 mM phosphate buffer (pH 7.4) with mouse liver microsomes (male, Corning Incorporated, USA) and the compound at a concentration of 1 µM were subjected to a metabolic reaction for 22 minutes, 44 minutes, or 66 minutes. […]
Starred links: 1 amine or outer side, 2 acyl side, 3 side chain; linkers in the order of their positions; H or OH if unused. Non-standard residues stand in square brackets, D forms with d. Residues, ends and D or L forms follow the SMILES beside them. *: point of attachment. NMedβ3hAla = C[C@H](CC(=O)[*:2])N(C)[*:1]; NMeF = CN[C@@H](Cc1ccccc1)C(=O)O; NMeT = CN[C@H](C(=O)O)[C@@H](C)O; NMeL = CN[C@@H](CC(C)C)C(=O)O; NMeV = CN[C@H](C(=O)O)C(C)C; NMeAbu = CC[C@H](NC)C(=O)O; NMeA = CN[C@@H](C)C(=O)O; dNMeA = CN[C@H](C)C(=O)O; Sar = CNCC(=O)O; tBu = CC(C)(C)*
endpoint: Mouse Hepatic Microsome CLh,int NADPH(-)
# answer = value followed by unit

Please state Mouse Hepatic Microsome CLh,int NADPH(-) for every compound in the list that follows.
1. CC[C@H]1C(=O)N(C)[C@H](C)CC(=O)N(C)[C@H](C)C(=O)N(C)[C@@H](C)C(=O)N(C)[C@@H](Cc2ccccc2)C(=O)N[C@@H](C(C)C)C(=O)N(C)[C@@H](CC(C)C)C(=O)N(C)[C@@H]([C@@H](C)O)C(=O)N(C)CC(=O)N[C@@H](C)C(=O)N(C)[C@@H](CC(C)C)C(=O)N[C@@H](COC(C)(C)C)C(=O)N(C)[C@@H](Cc2ccccc2)C(=O)N1C [pd150] (cyclo(A[NMeL]S(tBu)[NMeF][NMeAbu][NMedβ3hAla][dNMeA][NMeA][NMeF]V[NMeL][NMeT][Sar]))
2. CC[C@H]1C(=O)N[C@@H](COC(C)(C)C)C(=O)N(C)[C@@H](C(C)C)C(=O)N(C)[C@@H](C)C(=O)N(C)[C@H](C)CC(=O)N[C@H](C(C)C)C(=O)N(C)[C@@H](CC(C)C)C(=O)N[C@@H](C)C(=O)N(C)[C@@H](C(C)C)C(=O)N(C)[C@@H](CC(C)C)C(=O)NCC(=O)N(C)[C@@H]([C@@H](C)O)C(=O)N(C)[C@@H](Cc2ccccc2)C(=O)N1C [pd147] (cyclo(A[NMeV][NMeL]G[NMeT][NMeF][NMeAbu]S(tBu)[NMeV][NMeA][NMedβ3hAla][dV][NMeL]))

output:
1: 4.2 µL/min/mg Protein; 2: 14.8 µL/min/mg Protein

====

Would you kindly list Caco2 Papp (10^-6 cm/sec) for each of these compounds?
test system: Caco-2 cells; experiment: Membrane permeability test using Caco-2 cells with preincubation; format: in vitro ADME; settings: Caco-2 cells, preincubation 20 to 24 hours; apical FaSSIF/HBSS 1% DMSO pH 6.0, basal HBSS 4% BSA pH 7.4; basal sample at 180 minutes
Starred links: 1 amine or outer side, 2 acyl side, 3 side chain; linkers in the order of their positions; H or OH if unused. Positions of bridges follow the written chain, without caps; N, C: chain ends. Non-standard residues stand in square brackets, D forms with d. Residues, ends and D or L forms follow the SMILES beside them. *: point of attachment. NMeF = CN[C@@H](Cc1ccccc1)C(=O)O; NMeGABA = CN(CCCC(=O)[*:2])[*:1]; NMeI = CC[C@H](C)[C@H](NC)C(=O)O; NMeT = CN[C@H](C(=O)O)[C@@H](C)O; NMeβAla = CN(CCC(=O)[*:2])[*:1]; NMeD = CN[C@@H](CC(=O)O)C(=O)O; NMeL = CN[C@@H](CC(C)C)C(=O)O; NMeV = CN[C@H](C(=O)O)C(C)C; NMeAbu = CC[C@H](NC)C(=O)O; NMeA = CN[C@@H](C)C(=O)O; Piperidide = C1CCN(*)CC1; Abu = CC[C@H](N)C(=O)O; NBuGly = CCCCNCC(=O)O; Sar = CNCC(=O)O; tBu = CC(C)(C)*

Field: example entries. Status: answers known.
compound	Caco2 Papp (10^-6 cm/sec)
CCCCN1CC(=O)N[C@@H](CC(C)C)C(=O)N(C)[C@@H]([C@@H](C)CC)C(=O)N(C)[C@@H]([C@@H](C)O)C(=O)N(C)[C@@H](Cc2ccccc2)C(=O)N[C@@H]([C@@H](C)CC)C(=O)N(C)[C@@H](CC(C)C)C(=O)N[C@H](C(=O)N2CCCCC2)CC(=O)N(C)[C@@H](C)C(=O)N[C@@H](CC(C)C)C(=O)N(C)[C@@H](CC(C)C)C(=O)N(C)[C@@H](Cc2ccccc2)C(=O)N[C@@H](CC)C1=O [pd111] ([NMeA]L[NMeL][NMeF][Abu][NBuGly]L[NMeI][NMeT][NMeF]I[NMeL]D-Piperidide; lactam N-13)	0.04 10^-6 cm/sec
CC[C@H](C)[C@H]1C(=O)NCC(=O)N(C)[C@@H](CC(C)C)C(=O)N(C)[C@@H](C(C)C)C(=O)N(C)[C@@H](C)C(=O)N(C)[C@H](C(=O)N2CCCCC2)CC(=O)N(C)[C@@H](C)C(=O)N[C@@H](CC(C)C)C(=O)N(C)[C@@H](CC(C)C)C(=O)N[C@@H](COC(C)(C)C)C(=O)N(C)[C@@H](Cc2ccccc2)C(=O)N[C@@H](C)C(=O)N(C)[C@@H](Cc2ccccc2)C(=O)N1C [pd155] ([NMeA]L[NMeL]S(tBu)[NMeF]A[NMeF][NMeI]G[NMeL][NMeV][NMeA][NMeD]-Piperidide; lactam N-13)	0.87 10^-6 cm/sec
CC[C@H](C)[C@H]1C(=O)N[C@@H]([C@@H](C)O)C(=O)N(C)CC(=O)N(C)[C@@H](CC(C)C)C(=O)N(C)[C@@H](Cc2ccccc2)C(=O)N[C@H](C(=O)N2CCCCC2)CC(=O)N(C)[C@@H](C)C(=O)N[C@@H](CC(C)C)C(=O)N(C)[C@@H](Cc2ccccc2)C(=O)N(C)CCC(=O)N(C)[C@@H](CC(C)C)C(=O)N(C)CCC(=O)N[C@@H](CC(C)C)C(=O)N1C [pd120] ([NMeA]L[NMeF][NMeβAla][NMeL][NMeβAla]L[NMeI]T[Sar][NMeL][NMeF]D-Piperidide; lactam N-13)	0.69 10^-6 cm/sec

Please find the next compound below.
input: Name the reported Caco2 Papp (10^-6 cm/sec) value associated with the compound CC[C@H](C)[C@H]1C(=O)N[C@@H](Cc2ccccc2)C(=O)N2CCC[C@H]2C(=O)N(C)[C@@H](CC(C)C)C(=O)N[C@@H](COC(C)(C)C)C(=O)N(C)[C@@H](Cc2ccccc2)C(=O)N[C@@H]([C@@H](C)O)C(=O)N(C)[C@@H](CC)C(=O)N2CCC[C@H]2C(=O)N(C)[C@@H](CC(C)C)C(=O)N[C@H](C(=O)N2CCCCC2)CC(=O)N(C)CCCC(=O)N(C)[C@@H](CC(C)C)C(=O)N1C [pd118] ([NMeGABA][NMeL][NMeI]FP[NMeL]S(tBu)[NMeF]T[NMeAbu]P[NMeL]D-Piperidide; lactam N-13)
output: 0.46 10^-6 cm/sec
